Source: ChEMBL document CHEMBL1961873

- TGT: Insulin receptor (Homo sapiens) (UniProt P06213)
- Sequence (P06213 28-758 limits assumed): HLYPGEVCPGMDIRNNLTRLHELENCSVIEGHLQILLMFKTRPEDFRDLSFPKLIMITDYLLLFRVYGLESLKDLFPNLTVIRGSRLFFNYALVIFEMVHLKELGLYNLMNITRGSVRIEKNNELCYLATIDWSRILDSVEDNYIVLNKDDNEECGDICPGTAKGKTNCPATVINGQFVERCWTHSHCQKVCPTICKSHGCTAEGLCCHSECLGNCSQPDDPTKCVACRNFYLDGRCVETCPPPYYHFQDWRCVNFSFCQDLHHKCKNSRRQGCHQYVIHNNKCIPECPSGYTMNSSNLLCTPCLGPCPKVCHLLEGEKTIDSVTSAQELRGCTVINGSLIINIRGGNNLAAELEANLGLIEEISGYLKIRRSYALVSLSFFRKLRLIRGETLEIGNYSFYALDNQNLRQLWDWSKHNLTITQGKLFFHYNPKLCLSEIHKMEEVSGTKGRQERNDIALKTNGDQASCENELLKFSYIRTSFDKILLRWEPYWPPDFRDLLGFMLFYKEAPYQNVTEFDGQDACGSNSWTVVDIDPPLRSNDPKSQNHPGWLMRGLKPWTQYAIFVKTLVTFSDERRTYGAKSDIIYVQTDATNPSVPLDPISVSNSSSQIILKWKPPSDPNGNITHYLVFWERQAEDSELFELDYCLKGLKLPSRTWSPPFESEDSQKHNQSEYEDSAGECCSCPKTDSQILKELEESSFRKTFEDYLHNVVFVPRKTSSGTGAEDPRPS
- Sequence (P06213 763-1382 limits assumed): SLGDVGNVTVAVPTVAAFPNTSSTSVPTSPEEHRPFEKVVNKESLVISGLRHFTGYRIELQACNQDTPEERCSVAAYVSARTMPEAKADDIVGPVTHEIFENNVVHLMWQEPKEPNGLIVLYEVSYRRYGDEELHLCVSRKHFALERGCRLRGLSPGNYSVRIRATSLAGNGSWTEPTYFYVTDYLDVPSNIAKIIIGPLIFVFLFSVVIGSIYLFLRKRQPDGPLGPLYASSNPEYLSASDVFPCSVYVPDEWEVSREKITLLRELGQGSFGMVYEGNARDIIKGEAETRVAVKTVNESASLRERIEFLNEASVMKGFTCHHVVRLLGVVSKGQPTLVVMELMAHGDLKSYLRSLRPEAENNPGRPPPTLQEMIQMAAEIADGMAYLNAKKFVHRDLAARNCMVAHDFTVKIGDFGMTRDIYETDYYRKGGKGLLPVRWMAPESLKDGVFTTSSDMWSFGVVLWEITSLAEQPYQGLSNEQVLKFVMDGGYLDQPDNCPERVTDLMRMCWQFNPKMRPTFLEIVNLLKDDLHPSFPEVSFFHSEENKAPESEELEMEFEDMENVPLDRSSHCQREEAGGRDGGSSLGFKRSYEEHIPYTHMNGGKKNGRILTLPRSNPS
- TEST_CONDITIONS: at 1 µM
Answer each item with its documented inhibition.
Record the value in %, omitting the unit from your answer.

Consider the compound CCS(=O)(=O)c1ccc(OC)c(Nc2nccc(N(C)c3ccc4c(C)n[nH]c4c3)n2)c1 tested on Insulin receptor (Homo sapiens) (UniProt P06213); state its inhibition.
4.35

Consider the compound COc1cc(/C=N/Nc2ncnc3c2cnn3C(C)C)ccc1O tested on Insulin receptor (Homo sapiens) (UniProt P06213); state its inhibition.
2.59

Consider the compound Nc1nccc(C#Cc2cncnc2Nc2ccc(OCc3cccc(F)c3)c(Cl)c2)n1 tested on Insulin receptor (Homo sapiens) (UniProt P06213); state its inhibition.
4.44

Consider the compound C[C@@H](Oc1cc(-n2cnc3ccc(OCC4CCN(C)CC4)cc32)sc1C(N)=O)c1ccccc1C(F)(F)F tested on Insulin receptor (Homo sapiens) (UniProt P06213); state its inhibition.
1.24

Consider the compound c1ccc(Nc2ncc(-c3ccccc3)o2)cc1 tested on Insulin receptor (Homo sapiens) (UniProt P06213); state its inhibition.
6.98

Consider the compound CS(=O)(=O)CCNCc1nc(-c2ccc3ncnc(Nc4ccc(OCc5cccc(C(F)(F)F)c5)cc4)c3c2)cs1 tested on Insulin receptor (Homo sapiens) (UniProt P06213); state its inhibition.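 Further: each figure is a mean inhibition value from the GSK PKIS screening panel.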
3.15
